System Tested: HCV NS3 protease domain (Hepatitis C virus genotype 1b, UniProt Q9WMX2)
Construct: The first 181 amino acids of NS3 (residues 1027-1207 of the viral polyprotein); hexa-histidine (C); made in house; host or cells: E. coli BL21/DE3 pLysS
Sequence (Q9WMX2 1027-1207, other chains not shown): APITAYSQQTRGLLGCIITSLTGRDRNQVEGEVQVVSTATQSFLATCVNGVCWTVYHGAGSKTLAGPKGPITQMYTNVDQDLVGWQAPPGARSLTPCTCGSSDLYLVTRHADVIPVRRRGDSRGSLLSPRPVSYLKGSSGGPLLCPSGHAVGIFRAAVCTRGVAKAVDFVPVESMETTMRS
Test Name: biochemical
Test Conditions: Enzyme Assay 1 (HCV NS3 Protease Domain Peptide Cleavage Assay) activity, apparent Ki class
Reported Metric: Ki

Looking for the measured Ki of "CCC[C@H](NC(=O)[C@@H]1C[C@]2(CC(c3ccc(Cl)c(C)c3)=NO2)CN1C(=O)[C@@H](NC(=O)O[C@H]1CCOC1)C(C)(C)C)C(=O)C(=O)NC1CC1" , can you help? < 100 nM

What value of measured Ki is listed for "CCC[C@H](NC(=O)[C@@H]1C[C@]2(CC(c3cccc(Cl)c3)=NO2)CN1C(=O)[C@@H](NC(=O)CC1(O)CCCCC1)C(C)(C)C)C(=O)C(=O)NC1CC1" ? 100 to 500 nM

What does the record list as Ki for "CCC[C@H](NC(=O)[C@@H]1C[C@]2(CC(c3cccc(Cl)c3)=NO2)CN1C(=O)[C@@H](NC(=O)CC1CCCCC1)C(C)(C)C)C(=O)C(=O)NC1Cc2ccccc2C1" ? > 500 nM

What value of Ki has been recorded for this entry: "CCC[C@H](NC(=O)[C@@H]1C[C@]2(CC(c3ccc4c(c3)OCO4)=NO2)CN1C(=O)[C@@H](NC(=O)[C@@H](NC(=O)c1cnccn1)C(C)(C)C)C(C)(C)C)C(=O)C(=O)NC1CC1" < 100 nM

Tell me the measured Ki of "CCC[C@H](NC(=O)[C@@H]1C[C@]2(CC(c3cc(C)c(OC)c(C)c3)=NO2)CN1C(=O)[C@@H](NC(=O)CC1CCCCC1)C(C)(C)C)C(=O)C(=O)NC1CC1" , please. 100 to 500 nM

Param item = "CCC[C@H](NC(=O)[C@@H]1C[C@]2(CC(c3cccc(Cl)c3)=NO2)CN1C(=O)[C@@H](NC(=O)OC1CCOCC1)C(C)(C)C)C(=O)C(=O)NC1CC1" ; retrieve measured Ki. 100 to 500 nM

Dear colleague, I am looking for the recorded Ki of the following molecule: "CC(C)C[C@H](NC(=O)[C@@H]1C[C@]2(CC(c3cccc(Cl)c3)=NO2)CN1C(=O)[C@@H](NC(=O)CC1CCCCC1)C(C)(C)C)C(=O)C(=O)NC1CC1" 100 to 500 nM

Recorded Ki of "CCC[C@H](NC(=O)[C@@H]1C[C@]2(CC(c3ccc(C#N)cc3)=NO2)CN1C(=O)[C@@H](NC(=O)CC1CCOCC1)C(C)(C)C)C(=O)C(=O)NC1CC1" , please. > 500 nM

Reported Ki for COc1ccc(C2=NO[C@@]3(C2)C[C@@H](C(=O)NC(CC2CCC2)C(=O)C(N)=O)N(C(=O)[C@@H](NC(=O)OCc2ccccc2)C(C)(C)C)C3)c(OC)c1 (stereo partly shown) : what is it? 100 to 500 nM

I would be grateful if you could share the reported Ki for "CCC[C@H](NC(=O)[C@@H]1C[C@]2(CC(c3cccc(Cl)c3)=NO2)CN1C(=O)[C@@H](NC(=O)CC1CCCCC1)C(C)(C)C)C(=O)C(=O)NCc1cc(OC)cc(OC)c1" . 100 to 500 nM
